Tested on: CCRF-CEM leukemia
Experiment: NCI-60 one-dose screen, 48 h
Settings: 10 µM unless noted
About 83,000 compounds went through this panel and 20% of them were active in at least one assay; those are over-represented in the sample as a whole. Calls of active or inactive are those of the source. How the source made its calls: active means growth percent below 10; inactive means the rest.
Outcomes: True = active, False = inactive

# Molecule, Experimental System, Label Class
records = [
    ("C=C1C(=O)O[C@H]2[C@H]1CC/C(Cn1cc(-c3cccc(Cl)c3)nn1)=C\\CC[C@@]1(C)O[C@@H]21", "CCRF-CEM leukemia", "True"),
    ("COc1ccc(C2=Nn3c(nnc3-n3nc(C)cc3C)SC2)cc1", "CCRF-CEM leukemia", "True"),
    ("CC(C)C(C(=O)NCCN1CCOCC1)N1C(=O)/C(=C/c2ccc(Br)cc2)SC1=S (centres undefined)", "CCRF-CEM leukemia", "False"),
    ("COc1cc(Nc2nc(N[C@H]3CCCC[C@@H]3N)nc3cc[nH]c(=O)c23)cc(OC)c1", "CCRF-CEM leukemia", "True"),
    ("NC1=NN(O)C2=CC([N+](=O)[O-])C=CC2=N1 (centres undefined)", "CCRF-CEM leukemia", "False"),
    ("COc1ccc(NC(=O)CSc2nc(-c3ccc(OC)c(OC)c3)cc(-c3cc(OC)c(OC)c(OC)c3)n2)cc1", "CCRF-CEM leukemia", "False"),
    ("COc1ccc(Nc2[nH]n3c(=O)cc(-c4ccccc4)nc3c2C(=O)Nc2ccc(C)cc2)c(OC)c1", "CCRF-CEM leukemia", "False"),
    ("COc1cc(-c2nn(-c3cccc(NC(=O)Nc4ccc(Cl)c(Cl)c4)c3)cc2-c2ccncc2)ccc1Cl", "CCRF-CEM leukemia", "True"),
    ("NC1=C(/C(N)=N/O)C(c2ccccc2)c2ccc3ccccc3c2O1 (centres undefined)", "CCRF-CEM leukemia", "False"),
]

Every entry's value here was drawn from PubChem BioAssay (NCI).
